Each entry below lists one item and its recorded melting point value.

STRUCTURE_NOTATION	melting point
CC(=O)c1cn(-c2ccccc2)c(=O)c(C#N)c1C	215.4 to 216.8 °C
CCc1cn(-c2ccccc2)c(=O)c(Sc2ccc(F)cc2)c1C	116.8 to 118.7 °C
CC(=O)c1cn(-c2ccccc2)c(=O)c(Sc2ncccn2)c1C	184.5 to 185.3 °C
CC(=O)c1cn(-c2ccccc2)c(=O)c(Br)c1C	166.5 to 167.4 °C
CC(=O)c1c[nH]c(=O)c(Sc2ccc(F)cc2)c1C	236 to 238 °C

The measurements presented in this section are drawn from patent US20090298889A1.
